System: Candida krusei K. 11655
test_protocol: In vitro antifungal activity, microbroth dilution MIC
Assay type: cell-based
cond: C. krusei K. 11655, RPMI-1640, 35° C., 4 to 48 hours
Overview of reported Minimal inhibitory concentration (MIC) across a group of compounds:
All answers are understood in µg/mL, so give the number only.

# compound, measurement_units, Minimal inhibitory concentration (MIC)
measured = [
    ("Cc1cc(C)c(C=C(F)OCC2COC(Cn3ccnc3)(c3ccc(Cl)cc3Cl)O2)cc1C (stereo not shown)", "µg/mL", 12.5),
    ("FC(OCC1COC(Cn2ccnc2)(c2ccc(Cl)cc2Cl)O1)=C(c1ccc(C(F)(F)F)cc1)C(F)(F)F (stereo not shown)", "µg/mL", 100),
    ("FC(=Cc1ccc2c(c1)OCO2)OCC1COC(Cn2ccnc2)(c2ccc(F)cc2F)O1 (mixture of isomers)", "µg/mL", 25.0),
    ("FC(OCC1COC(Cn2ccnc2)(c2ccc(Cl)cc2Cl)O1)=C(c1ccc(F)cc1)C(F)(F)F (mixture of isomers)", "µg/mL", 100),
]

q: What is its Minimal inhibitory concentration (MIC) for Candida krusei K. 11655? Entry: Cc1cccc(C=C(F)OCC2COC(Cn3cncn3)(c3ccc(Cl)cc3Cl)O2)c1 (mixture of isomers)
a: 100

* * *

System: Candida albicans A. 10231
test_protocol: In vitro antifungal activity, microbroth dilution MIC
Type: cell-based
cond: C. albicans A. 10231, RPMI-1640, 35° C., 4 to 48 hours
Overview of reported Minimal inhibitory concentration (MIC) across a group of compounds:
All answers are understood in µg/mL, so give the number only.

Worked examples follow.
# compound, assayed_target, Minimal inhibitory concentration (MIC) (µg/mL)
rows = [
    ("Cc1cccc(C(=C(F)OCC2COC(Cn3ccnc3)(c3ccc(F)cc3F)O2)C(F)(F)F)c1 (mixture of isomers)", "Candida albicans A. 10231", 12.5),
    ("Cc1ccc(C(=C(F)OCC2COC(Cn3ccnc3)(c3ccc(F)cc3F)O2)C(F)(F)F)cc1C (mixture of isomers)", "Candida albicans A. 10231", 12.5),
    ("CCc1ccc(C=C(F)OCC2COC(Cn3cncn3)(c3ccc(Cl)cc3Cl)O2)cc1 (mixture of isomers)", "Candida albicans A. 10231", 250),
]

Alright, here's another compound for you.
q: GET /values?readout=Minimal inhibitory concentration (MIC)&item= CCc1ccc(C(=C(F)OCC2COC(Cn3ccnc3)(c3ccc(F)cc3F)O2)C(F)(F)F)cc1 (mixture of isomers)
a: 12.5

* * *

Test system: Cryptococcus neoformans IFM. 40092
test_protocol: In vitro antifungal activity, microbroth dilution MIC
Format: cell-based
cond: Cry. neoformans IFM. 40092, RPMI-1640, 35° C., 4 to 48 hours
Text: […]
Overview of reported Minimal inhibitory concentration (MIC) across a group of compounds:
All answers are understood in µg/mL, so give the number only.

q: GET /values?readout=Minimal inhibitory concentration (MIC)&item= CCOc1ccc(C=C(F)OCC2COC(Cn3ccnc3)(c3ccc(F)cc3F)O2)cc1 (mixture of isomers)
a: 0.39

q: GET /values?readout=Minimal inhibitory concentration (MIC)&item= Cc1cc(C)cc(C(=C(F)OCC2COC(Cn3ccnc3)(c3ccc(F)cc3F)O2)C(F)(F)F)c1 (mixture of isomers)
a: 0.20

q: GET /values?readout=Minimal inhibitory concentration (MIC)&item= FC(OCC1COC(Cn2ccnc2)(c2ccc(Cl)cc2Cl)O1)=C(c1cccc(Cl)c1)C(F)(F)F (stereo not drawn)
a: 0.20

q: GET /values?readout=Minimal inhibitory concentration (MIC)&item= COc1ccc(C(=C(F)OCC2COC(Cn3ccnc3)(c3ccc(F)cc3F)O2)C(F)(F)F)cc1 (mixture of isomers)
a: 0.20

q: GET /values?readout=Minimal inhibitory concentration (MIC)&item= FC(OCC1COC(Cn2ccnc2)(c2ccc(Cl)cc2Cl)O1)=C(c1ccc(F)cc1)C(F)(F)F (mixture of isomers)
a: 0.78

From: patent US6376497B1
